# assay_target: recombinant human 5-HT2B receptor (Homo sapiens, UniProt P41595)
# Construct: expressed in transfected cells; host or cells: CHO-K1
# Sequence (P41595 whole entry): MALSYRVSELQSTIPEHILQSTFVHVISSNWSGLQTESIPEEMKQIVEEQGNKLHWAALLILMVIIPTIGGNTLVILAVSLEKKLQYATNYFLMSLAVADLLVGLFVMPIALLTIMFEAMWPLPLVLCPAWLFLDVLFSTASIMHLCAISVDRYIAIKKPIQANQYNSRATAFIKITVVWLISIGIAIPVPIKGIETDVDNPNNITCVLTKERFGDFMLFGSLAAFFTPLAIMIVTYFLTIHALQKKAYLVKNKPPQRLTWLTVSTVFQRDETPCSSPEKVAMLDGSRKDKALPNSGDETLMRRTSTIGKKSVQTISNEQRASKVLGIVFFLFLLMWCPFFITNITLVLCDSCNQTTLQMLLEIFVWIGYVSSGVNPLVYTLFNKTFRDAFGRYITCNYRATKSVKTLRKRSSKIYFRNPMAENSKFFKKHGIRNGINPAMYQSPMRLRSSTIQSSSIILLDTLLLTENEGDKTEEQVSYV
# test_summary: radioligand binding to serotonin receptor 5-HT2B ([3H] Lysergic acid diethylamide)
# test_conditions: read-out: Ki 5-HT2B
measured_endpoint: Ki (nM)
Return type: number; implicit unit nM.

Answered examples (2):
INSERT INTO assay_data (molecule, assay_result) VALUES
  ('CN1CCc2c(c3ccccc3n2Cc2ccccc2)C1.Cl [1.9(1)•HCl]', 67.2),
  ('Cc1ccc2c(c1)c1c(n2CCc2ccccn2)CCN(C)C1.Cl.Cl [1.1.2(2-3)•2HCl]', 647);

Consider the additional molecule presented here.
Query block: Please give the measured Ki for this molecule: Cc1ccc(S(=O)(=O)n2c3c(c4cc(C)ccc42)CN(C)CCC3)cc1.Cl [1.8.1(3)•HCl]
Result block: 203
